Test system: MS2 coat protein
Test: apparent KD of MS2 coat protein; designed switch direction (-1 OFF switch, 1 ON switch): -1; higher = weaker reporter binding
Conditions: input ligand: FMN 200 uM

Sequence Record: GGAUUGCGGCAAGGAUAUCUUUGUCAACAUAAAACAUGAGGAUCACCCAUGUGCAUCUUCGUGUGAGAGAAGGUGCGGCGAUCC [Geceretima] (Eterna round: R96, puzzle: Exclusion NG 2)
apparent KD of MS2 coat protein / nM: 1620
--
Sequence Record: GCUGGACAAGGAUAUAUAUGACGUGCUUCGGCACGAAGGUCACAUGAGGAUCACCCAUGUAGAAGGUGUCCAGC [E2/9-C2] (Eterna round: R97, puzzle: Exclusion 2)
apparent KD of MS2 coat protein / nM: 342
--
Sequence Record: UACUGGACAGGAUAUGUUCUUGAGCACUUGAGGAUCACCCAAGUCAUCAAGAACUCAGGCACAGAAGGGUUUAUGC [salish99_ex5_r4_007] (Eterna round: R97, puzzle: Exclusion 5)
apparent KD of MS2 coat protein / nM: 19.1
--
Sequence Record: GCGGAUUAUGUAGGAUAUCGGUCAGUUUCUGAUCGAGAAGGACAUGAGGAUCACCCAUGUAAAUUGCCCGCUUUGUGGGUCCGC [JL ENG1 3.62] (Eterna round: R96, puzzle: Exclusion NG 1)
apparent KD of MS2 coat protein / nM: 41.7
--
Sequence Record: GCAAAAUAUCAGGAUAUGACUAGCUGCGGCUAGUCAGAAGGGAUAACAUGAGGAUCACCCAUGUGAUAAAGUGU [JR_Ex6_Sub029] (Eterna round: R97, puzzle: Exclusion 6)
apparent KD of MS2 coat protein / nM: 66.7
--
Sequence Record: UAUUACAAGCGAAGAUCCCACAUGAGGAUCACCCAUGUGCUCGUCUUAUAAGGUACUGUGACGAAAGUCACGGUACC [Sensor 3, v1 - 91 v16] (Eterna round: R97, puzzle: Sensor, turn-off variant 1)
apparent KD of MS2 coat protein / nM: 32.7
--
Sequence Record: CAGCUGAAAGUGAGGAUAUCUAGAGCCUCGGCUCUAGAGAAGGCACAUGAGGAUCACCCAUGUCUCAACAGCUG [BmEx4/1-A2] (Eterna round: R97, puzzle: Brourd's mod of Exclusion 4)
apparent KD of MS2 coat protein / nM: 67.1
--
Sequence Record: ACUUACUGAGGAUAUACUUAGAUUUACAUGAGGAUCACCCAUGUUCCUCUAUGUAUAUAUGUAGAAGGCAGAAGUA [Mat - Exclusion 5 - JL Mod - D50] (Eterna round: R97, puzzle: Exclusion 5)
apparent KD of MS2 coat protein / nM: 252
--
Sequence Record: CCUGGGUAAGGAUAUUUGAUUCCCUCCGGUUAGGGAGGAUGGAAGAAGGUACAUGAGGAUCACCCAUGUGUGGA [Eternabot (L1) Solution 67] (Eterna round: R97, puzzle: Exclusion 4)
apparent KD of MS2 coat protein / nM: 94.7
--
Sequence Record: GCACGGAUGGUAGGAUAUCAGUGCGAUUAGCUCUGAGAAGGACCACAUGAGGAUCACCCAUGUACCUCAAUUAUCCUUCCGUGC [Eli exng1 - 022] (Eterna round: R96, puzzle: Exclusion NG 1)
apparent KD of MS2 coat protein / nM: 13.8
--
Sequence Record: UUAUUAUAUGUAGGAUAUGCGUAUUAUUGUUAUGCAGAAGGACAUGAGGAUCACCCAUGUAUAUUAUUGUUAUAUAUUGUAUAU [Title] (Eterna round: R96, puzzle: Exclusion NG 1)
apparent KD of MS2 coat protein / nM: 28.9
--
Sequence Record: GCCUGUGCCCUAGGAUAUCGCCCAGCCAAUGGAUGAGAAGGAGGCGGGUGAAACAUGAGGAUCACCCAUGUAAACGCACAAGCA [Inusri] (Eterna round: R96, puzzle: Exclusion NG 1)
apparent KD of MS2 coat protein / nM: 102
--
Sequence Record: GUCCUUUCUGAGGAUAUUAUCCUUUUCGAUUGAUAAGAAGGCAGUACAUGAGGAUCACCCAUGUGGGUUGUCUG [Polaris30] (Eterna round: R97, puzzle: Exclusion 6)
apparent KD of MS2 coat protein / nM: 45.8
--
Sequence Record: AAAGGGCGUGUGAGGAUAUCGACCCGACUUCCAGUCGAGAAGGCACAUGAGGAUCACCCAUGUGAUGACAGCGA [BmEX4 B.8] (Eterna round: R97, puzzle: Brourd's mod of Exclusion 4)
apparent KD of MS2 coat protein / nM: 38.4
--
Sequence Record: UGCGGGCUUUUGAGACCUCACAUGAGGAUCACCCAUGUGCUUGUCUUGUGGGUCGGUCGGUCGUUGGCUGGCUGGCU [-29.6, -52.1 kcal, A 10%] (Eterna round: R97, puzzle: Sensor, turn-off variant 1)
apparent KD of MS2 coat protein / nM: 18
--
Sequence Record: AGCAGACGAGGAUAUGAUUAAUAAUACAUGAGGAUCACCCAUGUAAUACUGAUCUAUGGAUCAGAAGGCGUCUGCU [E5/6-A2] (Eterna round: R97, puzzle: Exclusion 5)
apparent KD of MS2 coat protein / nM: 12
--
Sequence Record: AAAAGACAAGGAUAUACUUGGAAAAUAAAGCUUGAGGAAGUACUUGAGGAUCACCCAAGUAGAAGGUGUAGGCG [Edtiisre] (Eterna round: R97, puzzle: Exclusion 2)
apparent KD of MS2 coat protein / nM: 37.7
--
Sequence Record: UAUUUUGCAAGCAGAUCCCACAUGAGGAUCACCCAUGUGCUCGUCUUAUAAGGUUCUGUGACGAUAGUCACGGUACC [mod -Eli mod] (Eterna round: R97, puzzle: Sensor, turn-off variant 1)
apparent KD of MS2 coat protein / nM: 45.9
--
Sequence Record: AUGAUAUAACAGGAUAUUUGGCGCGGAUGCAGAGAAGAAGGGUUGACAUGAGGAUCACCCAUGUGAUCCUUCAA [Eternabot (L1) Solution 18] (Eterna round: R97, puzzle: Exclusion 6)
apparent KD of MS2 coat protein / nM: 20.1

---

Listed here: items and their measured apparent KD of MS2 coat protein.
Tested on: MS2 coat protein
Assay: apparent KD of MS2 coat protein; designed switch direction (-1 OFF switch, 1 ON switch): 1; higher = weaker reporter binding
Details: Eterna round: R95; input ligand: none

Sequence Record: AGCUAUCGAAAACGAUAGCAAAAGCAUGUACAUGAGGAUCACCCAUGUCAUGUGCAAGCUUUUUGCUCGUCUUAAAA [Zipper 23 - 4] (puzzle: Sensor for hsa-mir-208a)
apparent KD of MS2 coat protein [nM]: 208
--
Sequence Record: ACAAGCUUUUCUGUAUUGAAAGGUGGGAUACAUGAGGAUCACCCAUGUUUGUUUGUUUAUUGUUUUCCUCGUCUUAU [JR_SHM208A_Sub089] (puzzle: Sensor for hsa-mir-208a)
apparent KD of MS2 coat protein [nM]: 66.2
--
Sequence Record: GUCCGGCUGCCACAGGAUAUACGUGGAUCGACAUGAGGAUCACCCAUGUAUAUCCUAAUAAUUGCGUAGAAGGGUGGUCAGCCGG [Dionbe] (puzzle: Same State 2)
apparent KD of MS2 coat protein [nM]: 1180

---

Listed here: items and their measured apparent KD of K4 kissing-loop reporter.
Test system: K4 kissing-loop RNA reporter;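 also: bound reporter read as fluorescence of individual clusters on recovered sequencing chips by microscopy, with normalized cluster intensities fitted with a binding model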
Test: apparent KD of K4 kissing-loop reporter; higher = weaker reporter binding
Conditions: Eterna round: R107; input ligand: theophylline 20 uM

Sequence Record: AAAUAGAUCAGUCACCCAGUGAUGUUGGAAGGAGCGUGCGAAAGCACAGGUAGGUCGCCAAAAUAAAAGUGGCUGAUCAAAAUAA [#SwitchBubble 5 #K4Early]
apparent KD of K4 kissing-loop reporter / nM: 526

Sequence Record: GGAUAGGACAGAGGAUAUUGGUAGUGAUGUUACCAAAUAAAUAAACAGUCUACAAAGUAGGCUGACCAAGAAGGCUGUCCUAUCG [FmnBX 24 #SwitchBubble #StaticStem #Palindromic]
apparent KD of K4 kissing-loop reporter / nM: 80.1

Sequence Record: AGGCACGAGCAAGGAUAUCGAGUAGAGUGAUGUUCUGCCUGGGUUGGCUCGUAAGAGCCUUCUCAGCGAGAAGGUGCUCGUGCCU [#2 Same State - FMN A Attempt #20 (HarryS)]
apparent KD of K4 kissing-loop reporter / nM: 511

Sequence Record: CGCAGUGAUGUUGCUAUAUUUCUUGAUUAACGAGGACCGGUACGGCCGCCACUCGAUUUCUCUCUAAUCCACUAUGUUGUUUAGA [JR_SSTryptoA_Sub002]
apparent KD of K4 kissing-loop reporter / nM: 524

Sequence Record: UUUAAAUAUAGUGAUGUUAUAUAACAAUGACGAGGACCGGUACGGCCGCCACUCGAGAGAGAUAAUGGUCUUACAAAUGUAAGUC [AstrosSSTryA#8]
apparent KD of K4 kissing-loop reporter / nM: 738

Sequence Record: GGUGAUGAGCACGAUACCAGCCUCGGAGCCAGUGAUGUUGGCCCAGUUUAGAAUAAGACAGGCCCUUGGCAGCGUGACGAUGGCU [Inorusre]
apparent KD of K4 kissing-loop reporter / nM: 687
